# Tgt: T1, human CD19 exon1-3-his protein (human, UniProt P15391 20-186, limits assumed)
# T1 construct: made in HEK293E cells; also called membrane-distal end; not shown: His tag
# T1 sequence (looked up): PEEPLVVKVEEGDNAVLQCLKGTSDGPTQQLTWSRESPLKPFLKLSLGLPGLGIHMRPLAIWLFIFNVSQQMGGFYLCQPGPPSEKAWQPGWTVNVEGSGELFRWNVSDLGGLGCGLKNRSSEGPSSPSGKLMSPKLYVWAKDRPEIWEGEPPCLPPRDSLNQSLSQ
# Experiment notes: ELISA, coated at 2 ug/mL
Metric name: binding result

Binder	Result
F4.22.6 (antibody, human IgG1, V domains shown, human-murine chimeric antibody, human IgG1) VH: QVQLQQSGPELVKPGASVKISCKASGYAFSSFWMNWVKQRPGQGLEWIGRIYPGDGDTNYNGKFKGKATLTADKSSTTAYMHLSSLTSVDSAVYFCTRSVITAVVDWYFDVWGAGTTVTVSS VL: QIVLSQSPAILSASPGEKVTLTCRASSSVNFMHWYQQKPGSSPKPWIYATSNLASGAPARFSGSGSGTSYSLTISRVEAEDAAAYYCQQWSSYPIFTFGSGTKLEIK	no binding
F3.133.14 (antibody, human IgG1, V domains shown, human-murine chimeric antibody, human IgG1) VH: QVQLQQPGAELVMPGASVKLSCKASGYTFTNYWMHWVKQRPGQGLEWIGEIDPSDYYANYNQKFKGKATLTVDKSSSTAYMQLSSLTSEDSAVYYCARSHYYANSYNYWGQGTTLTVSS VL: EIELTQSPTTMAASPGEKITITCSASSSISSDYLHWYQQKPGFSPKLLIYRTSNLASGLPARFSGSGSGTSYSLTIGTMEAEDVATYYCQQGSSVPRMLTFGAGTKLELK	no binding
